Ref: paper PMC7826789

Form field: Percent Control (one value per entry).
system: TXK; settings: Compound Concentration (nM):1000;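 note: KINOMEscan scanMAX binding as percent activity remaining versus control; lower means stronger binding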
Hi, when you answer, please include the unit after the number. Thanks!

Molecule	Measured
COc1cc(C=NNc2ncnc3c2cnn3-c2ccccc2)ccc1O [GW513184X]	100%
Cl.c1ccc(Cc2nc3ccc(Nc4ncnc5ccccc45)cc3[nH]2)cc1 [GR269666A]	100%
COc1ccccc1-c1cc(/C=C2\C(=O)Nc3ncc(Br)cc32)cc(Br)c1O [GW442130X]	100%

Give Percent Control for Cl.O=C(Nc1ccc(Oc2ccc3[nH]c(NC(=O)c4ccccc4)nc3c2)cc1)Nc1cc(C(F)(F)F)ccc1F [GW709042A] tested on TXK. 97%

Give Percent Control for COc1ccc2c(-c3ccnc(Nc4cccc(OC(F)(F)F)c4)n3)cnn2n1 [GW810372X] tested on TXK. 67%
